Reference source: patent US20120225909A1

# SYSTEM: human β3-adrenergic receptor (Homo sapiens)
# Construct: A full-length human β3 gene is obtained from a human genomic library (made by Clontech) using this as the probe; expressed in transfected cells; host or cells: CHO (Chinese hamster ovary) cells, pcDNA3
# Sequence (P13945 whole entry): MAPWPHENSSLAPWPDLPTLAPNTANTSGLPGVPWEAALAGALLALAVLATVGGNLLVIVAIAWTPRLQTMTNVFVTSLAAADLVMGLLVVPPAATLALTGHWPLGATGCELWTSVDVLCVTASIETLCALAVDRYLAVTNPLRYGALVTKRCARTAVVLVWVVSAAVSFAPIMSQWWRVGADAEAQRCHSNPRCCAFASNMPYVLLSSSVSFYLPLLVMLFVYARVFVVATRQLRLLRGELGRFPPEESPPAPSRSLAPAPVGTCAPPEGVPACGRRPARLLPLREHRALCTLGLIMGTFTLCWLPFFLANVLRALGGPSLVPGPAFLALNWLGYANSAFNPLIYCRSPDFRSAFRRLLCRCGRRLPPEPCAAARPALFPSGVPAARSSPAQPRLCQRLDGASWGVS
# ASSAY_DETAILS: Test Case 1-B: human β3-adrenergic receptor agonist activity (cAMP-Screen, 96-well)
# Format: cell-based
# CONDITION_LABEL: 0.5 h; read-out: β3 receptor I.A.
Note: every record was labeled by where its Emax sits among category 1 (below 80%), category 2 (80% to below 90%), category 3 (90% or more)

Request: For the record Cc1n[nH]c2cc(OCCNC[C@H](O)c3cccc(NS(=O)(=O)c4ccc(Cl)cc4)c3)ccc12 , report the class its Emax corresponds to.
Result: category 1

Request: For the record O=S(=O)(Nc1cccc([C@@H](O)CNCCOc2ccc3c(Cl)n[nH]c3c2)c1)C1CCC1 , report the class its Emax corresponds to.
Result: category 3

Request: For the record Nc1cccc(S(=O)(=O)Nc2cccc([C@@H](O)CNCCOc3ccc4c(OC(F)F)n[nH]c4c3)c2)c1 , report the class its Emax corresponds to.
Result: category 3

Request: For the record CCc1n[nH]c2cc(OCCNC[C@H](O)c3cccc(NS(=O)(=O)C4CC4)c3)ccc12 , report the class its Emax corresponds to.
Result: category 1

Request: For the record CNc1cccc(S(=O)(=O)Nc2cccc([C@@H](O)CNCCOc3ccc4c(C)n[nH]c4c3)c2)c1 , report the class its Emax corresponds to.
Result: category 3

Request: For the record CCc1n[nH]c2cc(OCCNC[C@H](O)c3cccc(NS(=O)(=O)c4cccc(C)c4)c3)ccc12 , report the class its Emax corresponds to.
Result: category 2

Request: For the record Cc1n[nH]c2cc(OCCNC[C@H](O)c3cccc(NS(=O)(=O)c4ccccc4O)c3)ccc12 , report the class its Emax corresponds to.
Result: category 3

Request: For the record Cc1n[nH]c2cc(OCCNC[C@H](O)c3cccc(NS(=O)(=O)c4ccccc4Cl)c3)ccc12 , report the class its Emax corresponds to.
Result: category 1

Request: For the record O=S(=O)(Nc1cccc([C@@H](O)CNCCOc2ccc3c(C(F)(F)F)n[nH]c3c2)c1)C1CCC1 , report the class its Emax corresponds to.
Result: category 2

Request: For the record O=S(=O)(Nc1cccc([C@@H](O)CNCCOc2ccc3c(OC(F)F)n[nH]c3c2)c1)C1CC1 , report the class its Emax corresponds to.
Result: category 1

Request: For the record Cc1n[nH]c2cc(OCCNC[C@H](O)c3cccc(NS(=O)(=O)c4cccc(O)c4)c3)ccc12 , report the class its Emax corresponds to.
Result: category 1

Request: For the record Cc1n[nH]c2cc(OCCNC[C@H](O)c3cccc(NS(=O)(=O)c4cnn(C)c4)c3)ccc12 , report the class its Emax corresponds to.
Result: category 2

Request: For the record CCc1n[nH]c2cc(OCCNC[C@H](O)c3cccc(NS(=O)(=O)c4cn[nH]c4)c3)ccc12 , report the class its Emax corresponds to.
Result: category 3

----------
# SYSTEM: human β1-adrenergic receptor (Homo sapiens, UniProt P08588)
# Construct: expressed in transfected cells; host or cells: CHO (Chinese hamster ovary) cells, pcDNA3
# Sequence (P08588 whole entry): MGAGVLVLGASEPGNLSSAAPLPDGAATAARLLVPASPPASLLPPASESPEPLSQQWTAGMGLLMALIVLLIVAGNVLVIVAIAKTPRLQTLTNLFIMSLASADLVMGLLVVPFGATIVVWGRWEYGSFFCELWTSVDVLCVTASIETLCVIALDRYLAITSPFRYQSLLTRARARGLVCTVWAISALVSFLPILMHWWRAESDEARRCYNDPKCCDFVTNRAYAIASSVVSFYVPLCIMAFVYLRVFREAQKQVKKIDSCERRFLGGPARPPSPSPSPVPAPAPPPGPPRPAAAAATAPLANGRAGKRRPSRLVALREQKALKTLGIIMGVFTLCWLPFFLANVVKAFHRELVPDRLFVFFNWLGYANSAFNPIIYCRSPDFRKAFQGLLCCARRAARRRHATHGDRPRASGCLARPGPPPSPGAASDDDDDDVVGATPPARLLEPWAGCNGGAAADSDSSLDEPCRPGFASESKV
# ASSAY_DETAILS: Test Case 2-C: human β1-adrenergic receptor agonist activity (Cerep cellular functional GPCR, beta 1)
# Assay type: cell-based
# CONDITION_LABEL: concentration 10 μM, isoproterenol = 100%
REPORTED_ENDPOINT: β1 receptor % of Control Agonist Response (%)
Please reply with the bare figure in % and do not write the unit itself.

Request: # lookup: β1 receptor % of Control Agonist Response of CCc1n[nH]c2cc(OCCNC[C@H](O)c3cccc(NS(=O)(=O)c4cn[nH]c4)c3)ccc12 [ex149]
Result: 5.2

Request: # lookup: β1 receptor % of Control Agonist Response of O=S(=O)(Nc1cccc([C@@H](O)CNCCOc2ccc3c(C(F)(F)F)n[nH]c3c2)c1)c1cn[nH]c1 [ex198]
Result: 3.5

Request: # lookup: β1 receptor % of Control Agonist Response of Nc1cccc(S(=O)(=O)Nc2cccc([C@@H](O)CNCCOc3ccc4c(C5CC5)n[nH]c4c3)c2)c1F [ex215]
Result: 23

Request: # lookup: β1 receptor % of Control Agonist Response of O=S(=O)(Nc1cccc([C@@H](O)CNCCOc2ccc3c(Cl)n[nH]c3c2)c1)c1cccnc1 [ex156]
Result: 12

Request: # lookup: β1 receptor % of Control Agonist Response of Nc1ccc(F)c(S(=O)(=O)Nc2cccc([C@@H](O)CNCCOc3ccc4c(OC(F)F)n[nH]c4c3)c2)c1 [ex106]
Result: 11

Request: # lookup: β1 receptor % of Control Agonist Response of Cc1n[nH]c2cc(OCCNC[C@H](O)c3cccc(NS(=O)(=O)c4ccc(F)c(N)c4)c3)ccc12 [ex58]
Result: 18

Request: # lookup: β1 receptor % of Control Agonist Response of O=S(=O)(Nc1cccc([C@@H](O)CNCCOc2ccc3c(OC(F)F)n[nH]c3c2)c1)c1ccccc1F [ex107]
Result: 8.7

Request: # lookup: β1 receptor % of Control Agonist Response of Nc1ccc(F)c(S(=O)(=O)Nc2cccc([C@@H](O)CNCCOc3ccc4c(C(F)(F)F)n[nH]c4c3)c2)c1 [ex185]
Result: 13

Request: # lookup: β1 receptor % of Control Agonist Response of O=S(=O)(Nc1cccc([C@@H](O)CNCCOc2ccc3c(Cl)n[nH]c3c2)c1)c1cccnc1 [ex155]
Result: 12

Request: # lookup: β1 receptor % of Control Agonist Response of COc1n[nH]c2cc(OCCNC[C@H](O)c3cccc(NS(=O)(=O)c4cn[nH]c4)c3)ccc12 [ex23]
Result: 2.1
